- MEASURED_ON: SARS-CoV-2 HR2 peptide (SARS-CoV-2), P0DTC2
- EXPERIMENT: peptide ELISA
Could you please report measured EC50 for the items listed next?
One number for each entry, in µg/mL.

{"columns": ["BINDER", "EC50 (µg/mL)"],
 "data": [
  ["hr2.024 (antibody, V domains shown) VH: QVQLVQSGAEVKKPGASVKVSCKASEDIFTDSYLHWVRQAPGQGLEWMGIITPSGDKTFYAQQFQGRLTMTRDPSTNTLYMFLSGLRSDDTAMYFCARQAEKGGWDYWGHGTLVTVSS VL: EIVLTQSPGTLSLSPGQRATLSCRSSQTITSNYLAWYQQRPGQAPRLLIYGASIRATGIPDRFSGSGSGTDFTLTISRLEPEDFAVYYCQQYGSSPPTFIFGPGTKVDIK", 0.106]
]}

Consider the following items and state reported EC50 for each.
1. hr2.019 (antibody, V domains shown) VH: EVQLVESGGGLVKPGGSLRLSCAASGSSVIDVWMNWVRQAPGKGLEWVGRIKTKASGAATDYGAPVKGRFTISRDDSKNLSYLQMNSLRAEDTGIYYCTTSPLPNFDYWGRGTLVTVSS VL: DIVMTQSPDFLAVSLGETATINCRSSQSVFYFANNKNYLAWYQQKPGQPPKLLIYWASKRESGVPDRFSGSGSGTDFTLTISSLQAEDVATYYCQQYSSPAITFGPGTKVDIK
2. hr2.094 (antibody, V domains shown) VH: EVQLVESGGGLVQPGGSLRLSCAASGFTFSTFWMTWVRQAPGKGLEWVANIKSDGSEKYYVDSVKGRFTISRDNAKNSLYLQMNSLRAEDTAVYYCATWFGLHWGQGTLVTVSS VL: DIVMTQSPDSLAVSLGERASINCKSSQTVLYSSNNKNYLAWYQQKPGQPPKLLIHWASTRDSGVPDRFSGSGSGTDFTLTISSLQAEDVAVYYCQQYHRIPWTFGRGTKVEIK
3. hr2.023 (antibody, V domains shown) VH: QVQLVQSGAEVKKPGASVKVSCRASENIFSDSYLHWVRQAPGQGLEWMGIITPSGDKTFYAQQFQGRLTMTRDTPTNTLHMDLRGLTSADTAIYYCARQATKGGWDYWGQGTLVTVSS VL: EIVLTQSPGTLSLSPGESATLSCRASQSVTRNYLAWYQQQPGQAPRLLIYGASNRATGVPDRFSGSGSGTDFTLTISRLEPEDFAVYYCQQYGSSPPTFIFGPGTKVDIK
4. CV3-25 (antibody) chain 1: QVQLVESGAEVKKPGESLKISCKGSGYTFTRYWIGWVRQMPGKGLEWMGIIYPGDSDTRYSPSFQGHVTISADKSISTAYLQWNSLKASDTAMYYCARLPQYCSNGVCQRWFDPWGQGTLVTVSS chain 2: EIVLTQSPSSVSASVGDRVTITCRASQGISSWLAWYQQKPGKAPKLLIYAASSLQSGVPSRFSGSGSGTDFTLTISSLQPEDFATYYCQQGNSFPYTFGQGTNLEIK

Response given:
1. 0.0267
2. 0.0835
3. 0.0175
4. 0.00968
